- Assay Protocol: Plasma concentration in Wistar rat plasma at 5 mg/kg, po after 6 hrs
- Type: ADME, organism-based
- Design: dose 5 mg/kg, route oral
// values below are reported concentration at 6 h
Measured Property: concentration at 6 h

| Compound Structure String | Result |
| --- | --- |
| COc1ccc2cc(-c3cccnc3)ccc2c1 | 0.133 µg/mL |
| COc1ccc2cc(-c3cncc4ccccc34)ccc2c1 | 0.0814 µg/mL |

====

- Assay Protocol: Plasma concentration in Wistar rat plasma at 5 mg/kg, po after 1 hr
- Type: ADME, organism-based
- Parameters: dose 5 mg/kg, route oral

| Compound Structure String | concentration at 1 h |
| --- | --- |
| COc1ccc2cc(-c3cncc4ccccc34)ccc2c1 | 34.9 ng/mL |
| COc1ccc2cc(-c3cccnc3)ccc2c1 | 84.5 ng/mL |

====

- Assay Protocol: Plasma concentration in Wistar rat plasma at 5 mg/kg, po after 4 hrs
- Format: ADME, organism-based
- Set-up: dose 5 mg/kg, route oral
// values below are reported concentration at 4 h

| Compound Structure String | concentration at 4 h, ng/mL |
| --- | --- |
| COc1ccc2cc(-c3cccnc3)ccc2c1 | 124 |
| COc1ccc2cc(-c3cncc4ccccc34)ccc2c1 | 76.3 |

====

Target sequence: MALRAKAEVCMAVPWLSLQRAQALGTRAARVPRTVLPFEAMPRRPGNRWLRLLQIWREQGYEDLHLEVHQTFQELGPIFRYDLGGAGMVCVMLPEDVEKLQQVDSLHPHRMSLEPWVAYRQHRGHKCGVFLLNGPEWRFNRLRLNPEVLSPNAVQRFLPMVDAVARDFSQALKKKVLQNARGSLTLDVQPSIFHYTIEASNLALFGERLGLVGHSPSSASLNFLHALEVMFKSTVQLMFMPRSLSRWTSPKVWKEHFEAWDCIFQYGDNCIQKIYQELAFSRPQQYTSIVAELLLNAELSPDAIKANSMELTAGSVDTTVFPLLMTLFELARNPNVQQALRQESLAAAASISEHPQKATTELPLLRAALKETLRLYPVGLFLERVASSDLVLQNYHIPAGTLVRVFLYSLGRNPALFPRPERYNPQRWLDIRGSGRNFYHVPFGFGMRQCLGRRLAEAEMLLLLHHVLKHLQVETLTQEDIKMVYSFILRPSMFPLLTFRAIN
pIC50: −log10 of the molar value.
Satisfied means recorded pIC50 is 6 or above; Not satisfied means it is below 6.

| Compound | Category Label |
| --- | --- |
| COc1ccc2cc(-c3cnccc3CO)ccc2c1 | Not satisfied |
| COC(=O)Cc1cncc(-c2ccc3cc(OC)ccc3c2)c1 | Satisfied |
| N#Cc1ccc2c(c1)CCC(c1cccnc1)=C2 | Satisfied |
| COc1ccc2c(c1)CC(C)C(c1cncc3ccccc13)=C2 (centres undefined) | Satisfied |
| COc1ccc2cc(-c3cncc(CO)c3)ccc2c1 | Satisfied |
| COc1ccc2cc(-c3cncc(O)c3)ccc2c1 | Not satisfied |
| COc1ccc2cc(-c3cncc(C(C)OC)c3)ccc2c1 (centres undefined) | Satisfied |
| COc1cncc(C2=Cc3ccc(OC)cc3CC2C)c1 (centres undefined) | Satisfied |
| COc1ccc2cc(-c3cncc(C(C)=O)c3)ccc2c1 | Satisfied |
| COc1ccc2cc(-c3cncc(-c4ccccc4)c3)ccc2c1 | Satisfied |
| COCc1cncc(-c2ccc3cc(OC)ccc3c2)c1 | Satisfied |
| COc1cncc(-c2ccc3cc(OC)ccc3c2)c1 | Satisfied |
